Attribution: ChEMBL document CHEMBL1177858

Quick list: IC50 per entry.
Test system: MCF7
Assay: Cytotoxicity against human MCF7 cells after 3 days by MTT assay
Type: functional, cell-based

{"COMPOUND": "CCc1c2c(nc3ccc(OCCC[n+]4cccc(C)c4)cc13)-c1cc3c(c(=O)n1C2)COC(=O)[C@]3(O)CC.[Br-]", "IC50": "0.11 nM/ml"}
{"COMPOUND": "CC[C@@]1(O)C(=O)OCc2c1cc1n(c2=O)Cc2cc3ccccc3nc2-1 [CAMPTOTHECIN]", "IC50": "0.02 nM/ml"}
{"COMPOUND": "CCc1c2c(nc3ccc(OCCC[n+]4ccccc4)cc13)-c1cc3c(c(=O)n1C2)COC(=O)[C@]3(O)CC.[Br-]", "IC50": "0.14 nM/ml"}
{"COMPOUND": "CCc1c2c(nc3ccc(OCC[n+]4cccc(C(C)=O)c4)cc13)-c1cc3c(c(=O)n1C2)COC(=O)[C@]3(O)CC.[Br-]", "IC50": "0.26 nM/ml"}
{"COMPOUND": "CCc1c2c(nc3ccc(OCCCn4cncn4)cc13)-c1cc3c(c(=O)n1C2)COC(=O)[C@]3(O)CC", "IC50": "0.08 nM/ml"}
